All figures here come from the nanobody polyreactivity screen of Harvey et al. (2022).

Method Notes: yeast display, Sf9 membrane polyspecificity reagent, FACS + sequencing; frameworks hold sequencing errors
Reported Property: polyreactivity (PSR sort gate)

# count of solved cases: 8
| Sequence Code | polyreactivity (PSR sort gate) |
| --- | --- |
| QVQLLESGGGLVQAGGSLRLSCAASGSIFDPYAMGWYRQAPGKERELVAVINDGGRTTYADSVKGRFTISRDNAKNTVYLQMNRLKPEDTAVYYCAATSYFSRWDLYGYWGQGTQVTVSS | low polyreactivity |
| QVQLVESGGGLVQAGGSLRLSCAASGRTFSGNTMGWYRQAPGKEREFVATISQSGTITSYADSVKGRFTISRDNAKNTVYLQMNSLKPEDTAVYYCAARAVYYSSRGWITRFDYWGQGTQVTVSS | high polyreactivity |
| QVQLVESVGGLVQAGGSLRLSCAASGSTFDDNAMGWYRQAPGKERELVASITYRGGSTYYADSVKGRFTISRDNAKNTVYLQMNSLKPEDTAVYYCAKGHYFKYDYWGQGTQVTVSS | low polyreactivity |
| QVQLVESGGGLVQAGGSLRLSCAASGSTFAGNAMGWYRKAPGKERELVAAITFSGGRTDYADSVKGRFTISRDNAKNTVYLQMNSLNPEDTSVYYCAAPADDTVHYQNYYWGQGTQVTVSS | low polyreactivity |
| QVQLVESGGGLVQAGGSLRLSCAASGRTFYYAMGWYRQAPVKERYADSVKGRFTISRDNAKNTVYLQMNSLKPEDTAVYYCAAKVPEPPSLDESDYWGQGTQVTVSS | low polyreactivity |
| QVQLVESGGGLDQAGGSLRLICAASGRTFYYNVMGWYRQAPGKERELVAAISTGVSTNYADSVKGRFTISRDNAKNTVYLQMNSQKPEDTAVYYCNSRSYRWYRPVYRYDYWGQGTQVTVSS | high polyreactivity |
| QVQLVESGGGLVQAGGSLRLSCAASGRTFYYYAMGWYRQAPGKERELVARIRSGGSTNYADSVKGRFTISRDNAKNTVYLQMNSLKPEDTAVYYCNALGAKGYVKGFDYWGQGTQVTVSS | low polyreactivity |
| QVQLVESGGGLVQAGGSLRLSWAASGPTCGQLAMVWYRQAPGKERELVAAISYSGARTYYADSVKGRFTISRDNAKNTVDLQMNSLIPQDTAVKYCNAYSAYVNGNRRGLGYWGQGTHVTVSS | high polyreactivity |

Q: Specify measured polyreactivity (PSR sort gate) for `QVQLVESGGGLVQEGGSLRLSCAASGSTFWGYAMGWYRQAPGKERELVATITTGGSTNYADSVKGRFTISRDNAKNTVYLQMNSLKPEDTAVYYCAAERLFRFWYSAYERYDYCGQGTQVTVSS` .
Result: low polyreactivity

Q: Specify measured polyreactivity (PSR sort gate) for `QVQLVESGGGLVQAGGSLRLSCAASGFTFYRNTMGWYRQAPGKERELVATITFSGTRTYYADSVKGRFTISRDNAKNTVYLQMNSLKPEDTAVYYCNRVRYRQSAFDFWGQGTQVTVSS` .
Result: high polyreactivity

Q: Specify measured polyreactivity (PSR sort gate) for `QVQLVESGGGLVQAGGSLRLSCAASGSTFYIYAMGWYRQAPGKDRELVARISGSGGSTYYADSVKGRITISRDNAKNTVYLQMNSLKPEDTAVYYCAATKFNSFYWRYGYWGQGTQVTVSS` .
Result: low polyreactivity
